The origin of these recorded values is patent US9382254B2.

- SYSTEM NAME: CFTR G551D mutant (Homo sapiens, UniProt P13569, G551D)
- Construct: expressed in transfected cells; host or cells: HEK293 (reverse transfection with plasmid)
- Sequence (P13569 whole entry G551D): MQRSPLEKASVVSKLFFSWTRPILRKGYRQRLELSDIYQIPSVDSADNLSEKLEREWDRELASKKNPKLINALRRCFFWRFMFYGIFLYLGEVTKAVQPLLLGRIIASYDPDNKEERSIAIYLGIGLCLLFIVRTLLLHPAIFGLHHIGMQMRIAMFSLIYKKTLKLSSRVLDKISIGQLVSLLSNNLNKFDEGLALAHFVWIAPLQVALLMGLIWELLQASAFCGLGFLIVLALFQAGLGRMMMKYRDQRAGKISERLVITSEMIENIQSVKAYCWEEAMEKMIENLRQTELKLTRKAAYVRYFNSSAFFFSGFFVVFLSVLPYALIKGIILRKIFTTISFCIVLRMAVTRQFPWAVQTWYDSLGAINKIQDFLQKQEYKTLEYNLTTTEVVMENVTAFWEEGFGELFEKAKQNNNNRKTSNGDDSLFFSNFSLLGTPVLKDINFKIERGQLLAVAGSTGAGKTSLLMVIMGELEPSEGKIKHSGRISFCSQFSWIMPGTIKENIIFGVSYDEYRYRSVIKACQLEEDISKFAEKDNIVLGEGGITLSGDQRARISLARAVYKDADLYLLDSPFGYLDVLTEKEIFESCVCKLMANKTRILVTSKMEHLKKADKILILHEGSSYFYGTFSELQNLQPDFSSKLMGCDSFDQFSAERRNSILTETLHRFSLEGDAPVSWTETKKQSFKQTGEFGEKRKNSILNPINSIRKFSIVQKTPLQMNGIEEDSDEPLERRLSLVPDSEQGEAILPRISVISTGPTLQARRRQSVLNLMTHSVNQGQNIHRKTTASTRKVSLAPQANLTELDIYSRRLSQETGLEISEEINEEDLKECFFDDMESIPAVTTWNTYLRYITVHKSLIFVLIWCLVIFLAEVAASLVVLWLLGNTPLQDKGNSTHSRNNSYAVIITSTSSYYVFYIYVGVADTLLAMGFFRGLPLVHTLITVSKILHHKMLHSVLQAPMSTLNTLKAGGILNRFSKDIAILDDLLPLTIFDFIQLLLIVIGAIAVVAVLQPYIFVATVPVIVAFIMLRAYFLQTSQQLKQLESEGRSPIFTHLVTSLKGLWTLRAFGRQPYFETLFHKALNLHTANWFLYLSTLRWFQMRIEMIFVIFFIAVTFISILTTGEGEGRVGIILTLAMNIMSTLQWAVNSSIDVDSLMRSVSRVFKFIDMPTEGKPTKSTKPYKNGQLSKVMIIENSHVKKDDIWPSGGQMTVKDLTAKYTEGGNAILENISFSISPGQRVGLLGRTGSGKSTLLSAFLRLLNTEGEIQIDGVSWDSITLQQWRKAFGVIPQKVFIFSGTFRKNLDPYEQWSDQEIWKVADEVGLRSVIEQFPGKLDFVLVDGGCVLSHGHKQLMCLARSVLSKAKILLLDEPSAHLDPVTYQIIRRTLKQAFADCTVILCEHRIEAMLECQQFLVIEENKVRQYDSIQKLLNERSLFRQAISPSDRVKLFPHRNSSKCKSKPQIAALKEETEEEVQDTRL
- ASSAY METHOD TEXT: YFP-halide influx assay for the CFTR-G551D mutation
- Format: cell-based
- DETAILS: HEK293 cells, forskolin 10.67 μM
pEC50: −log10 of the molar value.
METRIC NAME: pEC50

[
  {
    "MOLECULE": "CC(C)(O)C(=O)Nc1sc(S(=O)(=O)c2ccc(C(F)(F)F)c(Cl)n2)cc1C(N)=O",
    "VAL": 6.07
  },
  {
    "MOLECULE": "CC(C)(O)C(=O)Nc1sc(S(=O)(=O)c2cccc(C#N)c2)cc1C(N)=O",
    "VAL": 5.63
  }
]

[A] C[C@@H](CO)C(=O)Nc1sc(S(=O)(=O)c2ccc(OC(F)(F)F)cc2)cc1C(N)=O
[B] NC(=O)c1cc(S(=O)(=O)N2CC=C(C(F)(F)F)CC2)sc1NC(=O)c1ccccc1F
# query: argmin of pEC50 over A and B Please identify the chosen entry by its label.
B
(B: 5.73, A: 6.18)
